Measured values drawn from ChEMBL document CHEMBL5321272 for this set.

tgt: Serine/threonine-protein kinase Chk1 (Homo sapiens)
Sequence (O14757 whole entry): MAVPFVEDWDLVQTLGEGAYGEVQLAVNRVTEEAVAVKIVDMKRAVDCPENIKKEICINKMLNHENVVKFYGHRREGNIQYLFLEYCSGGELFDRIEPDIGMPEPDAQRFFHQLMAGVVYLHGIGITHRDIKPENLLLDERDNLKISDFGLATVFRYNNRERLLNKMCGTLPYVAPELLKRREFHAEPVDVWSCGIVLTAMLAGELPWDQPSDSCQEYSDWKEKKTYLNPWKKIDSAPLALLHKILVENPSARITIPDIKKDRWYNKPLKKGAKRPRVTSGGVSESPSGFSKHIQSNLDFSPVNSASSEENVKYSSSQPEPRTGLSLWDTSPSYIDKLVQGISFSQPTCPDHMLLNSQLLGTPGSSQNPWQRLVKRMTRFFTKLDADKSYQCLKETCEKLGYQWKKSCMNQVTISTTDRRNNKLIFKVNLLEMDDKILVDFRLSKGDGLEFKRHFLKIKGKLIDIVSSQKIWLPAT
Recorded IC50, one value per entry.

| smiles.text | IC50 / nM |
| --- | --- |
| CC(C)(O)CC(=O)N1CCc2ccc(Nc3ncc(C(F)(F)F)c(N[C@H]4CC[C@@H](N)CC4)n3)cc2C1 | 9.9 |
| CC(C)(O)CC(=O)N1CCc2cc(Nc3ncc(C(F)(F)F)c(NCCCCCN)n3)ccc2C1 | 159 |
| N[C@H]1CC[C@@H](Nc2nc(Nc3ccc4c(c3)CN(C(=O)CO)C4)ncc2C(F)(F)F)CC1 | 7.6 |
| CC(C)(O)CC(=O)N1CCc2cc(Nc3ncc(C(F)(F)F)c(NCCCN)n3)ccc2C1 | 34.5 |
| CC(C)(O)CC(=O)N1CCc2cc(Nc3ncc(C(F)(F)F)c(NCCCCN)n3)ccc2C1 | 41.1 |

====

protocol.text: Cmax in ICR mouse at 10 mg/kg, po
Assay type: ADME, organism-based
Design: dose 10 mg/kg, route po
study.conditions: in vivo
measured.metric: Cmax (ng/mL)

| smiles.text | measured.metric | unit.abbrev | measured.number |
| --- | --- | --- | --- |
| CC(C)(O)C(=O)N1Cc2ccc(Nc3ncc(C(F)(F)F)c(N[C@H]4CC[C@@H](N)CC4)n3)cc2C1 | Cmax | ng/mL | 263 |
| N[C@H]1CC[C@@H](Nc2nc(Nc3ccc4c(c3)CCN(C(=O)CO)C4)ncc2C(F)(F)F)CC1 | Cmax | ng/mL | 162 |
| CC(C)(O)C(=O)N1CCc2ccc(Nc3ncc(C(F)(F)F)c(N[C@H]4CC[C@@H](N)CC4)n3)cc2C1 | Cmax | ng/mL | 4.06 |
| CC(=O)N1Cc2ccc(Nc3ncc(C(F)(F)F)c(N[C@H]4CC[C@@H](N)CC4)n3)cc2C1 | Cmax | ng/mL | 32 |
| C[C@@H](O)C(=O)N1CCc2cc(Nc3ncc(C(F)(F)F)c(N[C@H]4CC[C@@H](N)CC4)n3)ccc2C1 | Cmax | ng/mL | 80.1 |
| CC(C)(O)CC(=O)N1Cc2ccc(Nc3ncc(C(F)(F)F)c(N[C@H]4CC[C@@H](N)CC4)n3)cc2C1 | Cmax | ng/mL | 42.5 |
| CC(=O)N1CCc2cc(Nc3ncc(C(F)(F)F)c(N[C@H]4CC[C@@H](N)CC4)n3)ccc2C1 | Cmax | ng/mL | 555 |
| CC(C)(O)CC(=O)N1CCc2cc(Nc3ncc(C(F)(F)F)c(N[C@H]4CC[C@@H](N)CC4)n3)ccc2C1 | Cmax | ng/mL | 571 |

====

tgt: Serine/threonine-protein kinase Chk1 (Homo sapiens, UniProt O14757)
Sequence (O14757 whole entry): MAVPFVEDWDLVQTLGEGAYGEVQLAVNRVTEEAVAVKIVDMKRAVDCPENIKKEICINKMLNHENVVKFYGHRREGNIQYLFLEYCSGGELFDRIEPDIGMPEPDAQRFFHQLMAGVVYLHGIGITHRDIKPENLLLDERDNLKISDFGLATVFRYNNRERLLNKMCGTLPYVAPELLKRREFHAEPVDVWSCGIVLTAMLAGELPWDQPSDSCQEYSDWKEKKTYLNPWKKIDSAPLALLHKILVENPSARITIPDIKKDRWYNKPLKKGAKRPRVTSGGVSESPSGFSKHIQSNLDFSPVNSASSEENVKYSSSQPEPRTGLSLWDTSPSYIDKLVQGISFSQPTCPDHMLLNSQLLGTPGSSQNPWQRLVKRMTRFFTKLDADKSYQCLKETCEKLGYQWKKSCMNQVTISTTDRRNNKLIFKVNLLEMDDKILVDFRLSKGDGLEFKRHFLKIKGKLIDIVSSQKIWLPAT
pIC50: −log10 of the molar value.

| smiles.text | tgt | pIC50 |
| --- | --- | --- |
| CC(C)(O)CC(=O)N1CCc2cc(Nc3ncc(C(F)(F)F)c(NCC(C)(C)CN)n3)ccc2C1 | Serine/threonine-protein kinase Chk1 (Homo sapiens, UniProt O14757) | 5.97 |
| CC(C)(O)CC(=O)N1CCc2cc(Nc3ncc(C(F)(F)F)c(NC4CCNCC4)n3)ccc2C1 | Serine/threonine-protein kinase Chk1 (Homo sapiens, UniProt O14757) | 6.64 |
| CC(C)(O)C(=O)N1CCc2ccc(Nc3ncc(C(F)(F)F)c(N[C@H]4CC[C@@H](N)CC4)n3)cc2C1 | Serine/threonine-protein kinase Chk1 (Homo sapiens, UniProt O14757) | 7.85 |
| CC(C)(O)CC(=O)N1CCc2cc(Nc3ncc(C(F)(F)F)c(NC[C@@H]4CCCNC4)n3)ccc2C1 | Serine/threonine-protein kinase Chk1 (Homo sapiens, UniProt O14757) | 6.47 |
| CC(C)(N)CCNc1nc(Nc2ccc3c(c2)CCN(C(=O)CC(C)(C)O)C3)ncc1C(F)(F)F | Serine/threonine-protein kinase Chk1 (Homo sapiens, UniProt O14757) | 6.66 |
| Cn1ccc2cc(Nc3ncc(C(F)(F)F)c(N[C@H]4CC[C@@H](N)CC4)n3)ccc2c1=O | Serine/threonine-protein kinase Chk1 (Homo sapiens, UniProt O14757) | 7.58 |
| CC(C)(O)CC(=O)N1Cc2ccc(Nc3ncc(C(F)(F)F)c(N[C@H]4CC[C@@H](N)CC4)n3)cc2C1 | Serine/threonine-protein kinase Chk1 (Homo sapiens, UniProt O14757) | 7.90 |
| CC(C)(O)Cn1ccc2cc(Nc3ncc(C(F)(F)F)c(N[C@H]4C[C@H]5CC[C@@H](C4)N5)n3)ccc2c1=O | Serine/threonine-protein kinase Chk1 (Homo sapiens, UniProt O14757) | 5.69 |

====

Recorded AUC(0-inf), one value per entry.
protocol.text: AUC (infinity) in ICR mouse at 10 mg/kg, po
Format: ADME, organism-based
Design: dose 10 mg/kg, route po
study.conditions: in vivo

| smiles.text | unit.abbrev | AUC(0-inf) |
| --- | --- | --- |
| CC(C)(O)C(=O)N1Cc2ccc(Nc3ncc(C(F)(F)F)c(N[C@H]4CC[C@@H](N)CC4)n3)cc2C1 | ng·h/mL | 604 |
| CC(C)(O)CC(=O)N1CCc2cc(Nc3ncc(C(F)(F)F)c(N[C@H]4CC[C@@H](N)CC4)n3)ccc2C1 | ng·h/mL | 1660 |
| N[C@H]1CC[C@@H](Nc2nc(Nc3ccc4c(c3)CCN(C(=O)CO)C4)ncc2C(F)(F)F)CC1 | ng·h/mL | 411 |
| CC(=O)N1Cc2ccc(Nc3ncc(C(F)(F)F)c(N[C@H]4CC[C@@H](N)CC4)n3)cc2C1 | ng·h/mL | 103 |
| CC(C)(O)CC(=O)N1Cc2ccc(Nc3ncc(C(F)(F)F)c(N[C@H]4CC[C@@H](N)CC4)n3)cc2C1 | ng·h/mL | 104 |
| CC(=O)N1CCc2cc(Nc3ncc(C(F)(F)F)c(N[C@H]4CC[C@@H](N)CC4)n3)ccc2C1 | ng·h/mL | 1100 |
| C[C@@H](O)C(=O)N1CCc2cc(Nc3ncc(C(F)(F)F)c(N[C@H]4CC[C@@H](N)CC4)n3)ccc2C1 | ng·h/mL | 226 |
| CC(C)(O)C(=O)N1CCc2ccc(Nc3ncc(C(F)(F)F)c(N[C@H]4CC[C@@H](N)CC4)n3)cc2C1 | ng·h/mL | 57.5 |

====

tgt: Receptor-type tyrosine-protein kinase FLT3 (Homo sapiens, UniProt P36888)
Sequence (P36888 whole entry): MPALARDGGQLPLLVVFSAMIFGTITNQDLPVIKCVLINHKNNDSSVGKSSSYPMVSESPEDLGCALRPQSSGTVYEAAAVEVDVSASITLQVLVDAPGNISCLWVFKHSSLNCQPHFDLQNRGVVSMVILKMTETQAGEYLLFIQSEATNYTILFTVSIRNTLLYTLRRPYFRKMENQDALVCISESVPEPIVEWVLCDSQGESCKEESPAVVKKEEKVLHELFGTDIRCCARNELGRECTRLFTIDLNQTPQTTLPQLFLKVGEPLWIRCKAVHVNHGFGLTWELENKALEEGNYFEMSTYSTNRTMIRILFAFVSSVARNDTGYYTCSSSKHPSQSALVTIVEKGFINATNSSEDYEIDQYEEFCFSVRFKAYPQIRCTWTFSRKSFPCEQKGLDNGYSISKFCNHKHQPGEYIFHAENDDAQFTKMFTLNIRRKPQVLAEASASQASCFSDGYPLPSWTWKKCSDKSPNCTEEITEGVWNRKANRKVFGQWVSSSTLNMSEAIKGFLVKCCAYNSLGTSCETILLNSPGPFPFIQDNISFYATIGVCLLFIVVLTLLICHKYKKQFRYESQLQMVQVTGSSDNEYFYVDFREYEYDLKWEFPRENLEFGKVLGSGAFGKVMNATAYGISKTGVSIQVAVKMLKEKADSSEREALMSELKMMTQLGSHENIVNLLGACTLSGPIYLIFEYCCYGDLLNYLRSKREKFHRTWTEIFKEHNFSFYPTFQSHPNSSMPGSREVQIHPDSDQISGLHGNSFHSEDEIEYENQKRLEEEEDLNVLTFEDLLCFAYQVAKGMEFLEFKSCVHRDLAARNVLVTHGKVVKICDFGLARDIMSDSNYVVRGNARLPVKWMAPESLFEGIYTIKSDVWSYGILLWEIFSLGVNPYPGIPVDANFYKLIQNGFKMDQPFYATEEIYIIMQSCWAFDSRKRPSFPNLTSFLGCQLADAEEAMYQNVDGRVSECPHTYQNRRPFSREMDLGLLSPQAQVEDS
pIC50: −log10 of the molar value.
measured.metric: pIC50

| smiles.text | tgt | result |
| --- | --- | --- |
| CC(C)(O)CC(=O)N1CCc2cc(Nc3ncc(C(F)(F)F)c(N[C@H]4CC[C@@H](N)CC4)n3)ccc2C1 | Receptor-type tyrosine-protein kinase FLT3 (Homo sapiens, UniProt P36888) | > 8.00 |
